Tested on: NCI-H596
Experiment: relative viability (nuclei count vs DMSO), 5 days (fraction); higher = more cells survive
Conditions: first compound 4 µM

compound	relative viability
C[C@@H]1CN(CC(=O)Nc2ccc3c(c2)Cc2cccc(-c4cc(=O)cc(N5CCOCC5)o4)c2S3)C[C@H](C)O1 + CS(=O)(=O)CCNCc1ccc(-c2ccc3ncnc(Nc4ccc(OCc5cccc(F)c5)c(Cl)c4)c3c2)o1 [Lapatinib] (partner 2 µM)	1.03
Clc1ccc(Nc2nnc(Cc3ccncc3)c3ccccc23)cc1 [Vatalanib] + CS(=O)(=O)N1CCN(Cc2cc3nc(-c4cccc5[nH]ncc45)nc(N4CCOCC4)c3s2)CC1 [Pictilisib] (partner 1 µM)	0.393
COc1cc(N2CCC(C(N)=O)CC2)ccc1Nc1nc(N)c(Cl)c(Nc2ccccc2S(=O)(=O)C(C)C)n1 [HG-5-88-01] + CC1(C)CCC(c2ccc(Cl)cc2)=C(CN2CCN(c3ccc(C(=O)NS(=O)(=O)c4ccc(N[C@H](CCN5CCOCC5)CSc5ccccc5)c(S(=O)(=O)C(F)(F)F)c4)cc3)CC2)C1 [Navitoclax] (partner 0.5 µM)	0.901
C[C@@H]1CN(CC(=O)Nc2ccc3c(c2)Cc2cccc(-c4cc(=O)cc(N5CCOCC5)o4)c2S3)C[C@H](C)O1 + C[C@@H](Oc1cc(-c2cnn(C3CCNCC3)c2)cnc1N)c1c(Cl)ccc(F)c1Cl [Crizotinib] (partner 1 µM)	0.964
COc1cc(N2CCC(C(N)=O)CC2)ccc1Nc1nc(N)c(Cl)c(Nc2ccccc2S(=O)(=O)C(C)C)n1 [HG-5-88-01] + CCNC(=O)c1noc(-c2cc(C(C)C)c(O)cc2O)c1-c1ccc(CN2CCOCC2)cc1 [Luminespib] (partner 0.01 µM)	1.22
C[C@@H]1CN(CC(=O)Nc2ccc3c(c2)Cc2cccc(-c4cc(=O)cc(N5CCOCC5)o4)c2S3)C[C@H](C)O1 + COc1cc2c(Oc3ccc(NC(=O)C4(C(=O)Nc5ccc(F)cc5)CC4)cc3F)ccnc2cc1OCCCN1CCOCC1 [Foretinib] (partner 0.25 µM)	0.87
Clc1ccc(Nc2nnc(Cc3ccncc3)c3ccccc23)cc1 [Vatalanib] + CC1(C)CCC(c2ccc(Cl)cc2)=C(CN2CCN(c3ccc(C(=O)NS(=O)(=O)c4ccc(N[C@H](CCN5CCOCC5)CSc5ccccc5)c(S(=O)(=O)C(F)(F)F)c4)cc3)CC2)C1 [Navitoclax] (partner 0.5 µM)	0.986
